Each item that follows carries a reported viscosity.
Details: 343.2 K; 100.9 kPa; Liquid; Cone and plate viscometry
± gives the expanded uncertainty stated by the source.
A complete answer gives the number followed by the unit.

Reference set, count: 2
INSERT INTO measurements (given_smiles, measure, observed_value) VALUES
  ('C[n+]1ccn(C(C)(C)C)c1.O=S(=O)([N-]S(=O)(=O)C(F)(F)C(F)(F)F)C(F)(F)C(F)(F)F', 'viscosity', '33.9 ± 2.7 mPa·s'),
  ('CC(C)n1cc[n+](C)c1.O=S(=O)([N-]S(=O)(=O)C(F)(F)C(F)(F)F)C(F)(F)C(F)(F)F', 'viscosity', '19.1 ± 1.5 mPa·s');

viscosity in this record for `C[n+]1ccn(C(C)(C)C)c1.O=S(=O)([N-]S(=O)(=O)C(F)(F)F)C(F)(F)F` : 19 ± 1.5 mPa·s

viscosity in this record for `CC(C)[n+]1ccn(C)c1.O=S(=O)([N-]S(=O)(=O)C(F)(F)F)C(F)(F)F` : 11.2 ± 0.9 mPa·s

---

Settings: 303.2 K; 100.9 kPa; Liquid; Cone and plate viscometry
measure: viscosity (mPa·s)
The response must be a number in mPa·s with no trailing unit.

INSERT INTO assay_data (given_smiles, measure, observed_value) VALUES
  ('CC(C)[n+]1ccn(C)c1.O=S(=O)([N-]S(=O)(=O)C(F)(F)F)C(F)(F)F', 'viscosity', 36.9),
  ('CC(C)n1cc[n+](C)c1.O=S(=O)([N-]S(=O)(=O)C(F)(F)C(F)(F)F)C(F)(F)C(F)(F)F', 'viscosity', 91.7),
  ('C[n+]1ccn(C(C)(C)C)c1.O=S(=O)([N-]S(=O)(=O)C(F)(F)C(F)(F)F)C(F)(F)C(F)(F)F', 'viscosity', 246.7);

viscosity in this record for `C[n+]1ccn(C(C)(C)C)c1.O=S(=O)([N-]S(=O)(=O)C(F)(F)F)C(F)(F)F` : 91.5

---

Details: 313.15 K; 100.9 kPa; Liquid; Vibrating tube method
± gives the expanded uncertainty stated by the source.
Each item that follows carries a reported mass density.
A complete answer gives the number followed by the unit.

INSERT INTO results (given_smiles, observed_value) VALUES
  ('C[n+]1ccn(C(C)(C)C)c1.O=S(=O)([N-]S(=O)(=O)C(F)(F)F)C(F)(F)F', '1432.8 ± 2 kg/m3'),
  ('CC(C)n1cc[n+](C)c1.O=S(=O)([N-]S(=O)(=O)C(F)(F)C(F)(F)F)C(F)(F)C(F)(F)F', '1535.5 ± 2 kg/m3'),
  ('CC(C)[n+]1ccn(C)c1.O=S(=O)([N-]S(=O)(=O)C(F)(F)F)C(F)(F)F', '1462.5 ± 2 kg/m3');

We now examine a further compound.
mass density in this record for `C[n+]1ccn(C(C)(C)C)c1.O=S(=O)([N-]S(=O)(=O)C(F)(F)C(F)(F)F)C(F)(F)C(F)(F)F` : 1509.6 ± 2 kg/m3

---

Conditions: 303.15 K; 100.9 kPa; Liquid; Vibrating tube method
Each item that follows carries a reported mass density.
The response must be a number in kg/m3 with no trailing unit.

INSERT INTO results (given_smiles, measure, unit_of_measure, observed_value) VALUES
  ('CC(C)n1cc[n+](C)c1.O=S(=O)([N-]S(=O)(=O)C(F)(F)C(F)(F)F)C(F)(F)C(F)(F)F', 'mass density', 'kg/m3', 1546),
  ('C[n+]1ccn(C(C)(C)C)c1.O=S(=O)([N-]S(=O)(=O)C(F)(F)C(F)(F)F)C(F)(F)C(F)(F)F', 'mass density', 'kg/m3', 1519.9),
  ('C[n+]1ccn(C(C)(C)C)c1.O=S(=O)([N-]S(=O)(=O)C(F)(F)F)C(F)(F)F', 'mass density', 'kg/m3', 1442);

We now examine a further molecule.
mass density in this record for `CC(C)[n+]1ccn(C)c1.O=S(=O)([N-]S(=O)(=O)C(F)(F)F)C(F)(F)F` : 1472
